System: SK-OV-3 ovarian
Procedure summary: NCI tumour cell line growth inhibition, 48 h
Reported endpoint: TGI

# input Which TGI value is on record for CN(C)C1COC2Cc3ccccc3C1O2 (stereo not drawn) ?
# output > 100 µM

# input Any idea what TGI was measured for O=C1/C(=C/c2ccc(O)cc2)CCc2ccccc21 ?
# output > 89.4 µM

# input Which TGI value is on record for CCNC(=O)Cc1nc2c(=O)[nH]cnc2n1C1OC(CO)C(O)C1O (stereo not drawn) ?
# output > 100 µM

====

Tested on: COLO 205 colon
Procedure summary: NCI tumour cell line growth inhibition, 48 h
Could you please report measured TGI for the items listed next?

# input Observed TGI on COLO 205 colon for Cc1ccc(S(=O)(=O)C2=C3C(=C(c4ccccc4)c4ccccc43)CN(S(=O)(=O)c3ccc(C)cc3)C2)cc1 , please.
# output > 100 µM

# input Query for COLO 205 colon: what TGI does the record show for [O-][N+]1=C(c2ccccc2)COc2ccccc21 ?
# output > 100 µM

# input Hello, I am looking for reported TGI with COLO 205 colon for Cc1ccccc1C(C#N)/C(=N/NC(=O)C(=O)NN)C(=O)Nc1cccc(C(F)(F)F)c1 (stereo not given) . Could you help?
# output > 100 µM

# input Give the reported TGI for COc1cc2c3c(n(CCCN4CCOCC4)c(=O)c2cc1OC)-c1cc2c(cc1C3=O)OCO2 (system: COLO 205 colon).
# output > 100 µM

# input Request - read-out TGI | tested on COLO 205 colon | compound Clc1cccc(Cl)c1C1SCc2nc3ncccc3n21 (stereo not given)
# output > 100 µM

# input Form field - read-out: TGI; system: COLO 205 colon; submitted item: Cn1c(=O)c2c(nc3sc4ncccc4c(=O)n32)n(C)c1=O
# output > 100 µM

# input Record lookup: for COLO 205 colon, what TGI belongs to Cc1c(C)c(C)c(CSC(=N)N)c(C)c1C ?
# output 28.1 µM

# input Form entry - test system: COLO 205 colon; read-out: TGI; compound: Cc1nn(C(=O)c2ccncc2)c2c1C(c1ccccc1O)SC(N)=N2 (stereo not given)
# output > 10 µM

# input Lab request: please report TGI under test system COLO 205 colon for COc1ccc2c(c1)N(CCC1CCCCN1C)c1ccccc1S2 (stereo not given)
# output 30.9 µM

# input TGI of Clc1ccc(-c2cc(-c3nc4ccccc4[nH]3)no2)cc1 on COLO 205 colon?
# output 41.8 µM

# input Reported TGI for COLO 205 colon, given Cc1ccc(S(=O)(=O)N/N=C2/CC[C@H](C(C)(C)C)C[C@@H]2C)cc1 ?
# output 35.4 µM

# input State its TGI on COLO 205 colon: COC(=O)c1cc(/C=C2\Cc3cc4c(cc3C2=O)CCC4)cc2c1CCC2
# output > 100 µM

# input What measured TGI is associated with N#CC(C#N)=Cc1ccc(-c2ccc(-c3nc4ccccc4s3)cc2)s1 on COLO 205 colon?
# output > 100 µM

# input Reported TGI for COLO 205 colon, given C(#Cc1ccccc1C#Cc1ccccn1)c1ccc(OCCCCCCOc2ccc(C#Cc3ccccc3C#Cc3ccccn3)cc2)cc1 ?
# output 15.6 µM

# input Give recorded TGI with COLO 205 colon for the following compound: NS(=O)(=O)c1ccc(NCc2cnc3ccccc3c2)cc1
# output > 100 µM

# input Could you share what TGI was measured for Nc1nc(Cl)cc(NCC2(CO)CCC(OCc3ccccc3)C2)n1 (stereo not given) , tested on COLO 205 colon?
# output 62.7 µM

# input Item: Cc1cc2nc3c(C#N)c(-c4ccccc4)cc(Nc4cccc(C(F)(F)F)c4)n3c2cc1C Test system: COLO 205 colon Read-out: TGI Value: ?
# output > 100 µM

# input Query for COLO 205 colon: what TGI does the record show for CO[C@H]1C[C@H](O[C@H]2CC[C@]3(C=O)[C@H]4CC[C@]5(C)[C@@H](C6=CC(=O)OC6)CC[C@]5(O)[C@@H]4CC[C@]3(O)C2)O[C@H](C)[C@H]1O[C@@H]1O[C@H](CO[C@@H]2O[C@H](CO)[C@@H](O)[C@H](O)[C@H]2O)[C@@H](O)[C@H](O)[C@H]1O ?
# output 0.348 µM

# input Hi! What's the reported TGI for Cc1ccc(C(=O)Nc2ccc(CP(=O)(O)O)cc2)cc1NC(=O)Nc1cc(C(=O)Nc2ccc(CP(=O)(O)O)cc2)ccc1C on COLO 205 colon?
# output > 100 µM

# input What is its TGI for COLO 205 colon? Entry: COc1ccc(N2C(=O)CC(c3c[nH]c4ccccc34)C2=O)cc1 (stereo not given)
# output > 100 µM

FYI, the data here is from PubChem BioAssay (NCI).
